Overview of reported TGI across a group of compounds:
# Tested on: OVCAR-5 ovarian
# assay.name: NCI tumour cell line growth inhibition, 48 h
attribute.measured: TGI

compound	recorded.measurement
Cc1cc(NCCCN(C)C)c2ccc3c(ccc4c(NCCCN(C)C)cc(C)nc43)c2n1	0.909 µM
NCCCN(CCCN(C(=O)Nc1ccccc1)c1ccccc1)C(=O)Nc1ccccc1	> 100 µM
CC(=O)Oc1cc2c(cc1OC(C)=O)OCC(c1ccc(C)cc1)C2 (centres undefined)	79 µM
COc1ccc(N2C(=O)CC(=O)N(C(=O)COc3ccc(OCC(=O)N4C(=O)CC(=O)N(c5ccc(OC)cc5)C4=S)cc3)C2=S)cc1	> 100 µM
Cc1nc(Nc2ccccc2)sc1C(=O)CC(=O)C(=O)Nc1c(C(C)C)cccc1C(C)C	> 100 µM
COC(=O)C1(Cc2ccc3c(c2)CCC3)Cc2ccccc2C1O (centres undefined)	80 µM
NC(=O)N/N=C1/CCC(O)CC1CC(=O)O (centres undefined)	> 100 µM
COC(C(=O)NN)c1ccccc1 (centres undefined)	> 100 µM
Cc1c(C(=O)Nc2ccccc2)sc2ncn(Cc3cccc(Cl)c3)c(=O)c12	94.5 µM
C=CCN=C(N/N=C/c1ccc([N+](=O)[O-])o1)NS(=O)(=O)c1cc(C(=O)Nc2ccc(Cl)cc2)c(Cl)cc1SC	> 100 µM
OCCO/N=C1\C(c2c(O)[nH]c3ccccc23)=Nc2ccccc21	> 100 µM
CN(C)c1nc(N)nc(CS)n1	> 100 µM
CCNC(=S)N=Nc1c(O)[nH]c2ccc([N+](=O)[O-])cc12	> 100 µM
COc1cc2ccc(=O)oc2cc1O	514 µM
COc1ccc2c(c1)c(CC(=O)[Se]C)c(C)n2C(=O)c1ccc(Cl)cc1	> 1 µM
COc1cccc(CCN2CCN(CCCc3ccccc3)CC2)c1	> 100 µM
NC(=O)CN(CC(N)=O)C(N)=O	> 100 µM
CSc1nnc(CCC(=O)Nc2c(C)cccc2C)o1	> 100 µM
O=C1C=CC(=O)C2=C1[C@@H](O)C1CC=CC3C(=O)O[C@@H]2C31 (some centres undefined)	> 100 µM
Cc1ccc(S(=O)(=O)c2c(COC(=O)c3cccc(C)c3)c(-c3ccccc3)nn2C)cc1	> 100 µM
CO/N=C1\CC(NC(=O)CNC(=O)OC(C)(C)C)c2ccsc21 (centres undefined)	> 100 µM
O=C1CCCCCCCCCCC1CN1CCCC1 (centres undefined)	> 100 µM
O=c1cnn(C2OC(CO)C(O)C2O)c(=S)[nH]1 (centres undefined)	> 100 µM
CCCCCCC[CH2][Sn]([CH2]CCCCCCC)([O]c1cccc2cccnc12)[O]c1cccc2cccnc12	8.21 µM
NCCCC[C@@H]1NC(=O)[C@H]2CCCN2C(=O)[C@H](Cc2ccccc2)CNC(=O)[C@H](Cc2ccccc2)NC1=O	> 37.5 µM
O=[N+]([O-])c1ccc(-n2nnc(C3=NCCN3)c2-c2ccccc2)cc1	> 100 µM
COc1ccc(/C=C/c2cc(OC)c(OC)c(OC)c2)cc1	> 100 µM
CCOC(=O)/C(C1=NCCN1)=C(\O)c1ccccc1	> 100 µM
CC1CCC/C1=C(/I)C(=O)c1ccccc1 (centres undefined)	> 100 µM
COc1ccc(CCN2CC=Cn3c2nc2ccccc2c3=O)cc1	> 100 µM
COC1CC(O[C@H]2CC[C@@]3(C)[C@H](CC[C@@H]4[C@@H]3CC[C@]3(C)[C@@H](C5=CC(=O)OC5)[C@@H](OC(C)=O)C[C@]43O)C2)OC(C)C1O (some centres undefined)	< 0.01 µM
C[C@H](OCc1ccccc1)C(=O)N1CCS(=O)(=O)N2CCC[C@@H]2C1=O	> 100 µM
O=C1C(Cl)=C(OCCCl)C(=O)c2c(O)ccc(O)c21	31.6 µM
Cc1ccc(/C(O)=C/c2nc3ccccc3sc2=O)c(C)c1	> 100 µM
